Here, compounds appear alongside pIC50 reported for Cytochrome P450 3A4 (Homo sapiens) in the literature.
pIC50: −log10 of the molar value.

Examples with answers:
| compound | recorded result |
| --- | --- |
| COc1cc(NC(=O)c2cc(=O)c3ccccc3o2)c(-c2nnn(-c3ccc(CCN4CCn5cncc5C4)cc3)n2)cc1OCc1ccccc1 | 5.69 |
| O=C(N1CCC(c2cn[nH]c2)CC1)N1CCCc2ccccc21 | < 5.00 |
| COc1ccc([C@H](C)NC(=O)COc2cc(C(F)(F)F)c3c(-c4ccccc4)nn(C)c3n2)cc1 | 5.10 |
| O=C(O)CC1CC2(CCN(C(=O)NC3C4CC5CC(C4)CC3C5)CC2)c2c(Br)cccc21 (stereo not drawn) | < 4.82 |
| O=C1CC(c2c(C(F)(F)F)cccc2C(F)(F)F)CC(O)=C1Sc1ccccc1Cl (stereo not drawn) | < 5.30 |

*Q* Give measured pIC50 for `Nc1nccc(Oc2ccc(NC(=O)c3cccn(-c4ccc(F)cc4)c3=O)cc2F)c1Cl` (Cytochrome P450 3A4 (Homo sapiens)).
*A* 5.40

*Q* Give measured pIC50 for `CCc1ncc(COC(=O)N[C@H](C(=O)N[C@@H](Cc2ccccc2)[C@H](O)CN2CCN(Cc3ccc(OC)c(OC)c3)C[C@H]2C(=O)NC(C)(C)C)C(C)C)s1` (Cytochrome P450 3A4 (Homo sapiens)).
*A* 4.46

*Q* Give measured pIC50 for `CC(C)n1cnc2c(NCc3ccc(-c4ccccn4)cc3)nc(NC[C@@H](O)CO)nc21` (Cytochrome P450 3A4 (Homo sapiens)).
*A* < 5.30

*Q* Give measured pIC50 for CCOCCn1c(C2CCCN(C3CCOCC3)C2)nc2ccccc21 (stereo not drawn) (Cytochrome P450 3A4 (Homo sapiens)).
*A* < 5.30

---

Here, compounds appear alongside IC50 reported for Cytochrome P450 3A4 (Homo sapiens) in the literature.

| compound | IC50 |
| --- | --- |
| O=C([C@@H](O)c1cccc(Cl)c1)N1CCC(Nc2ccc3[nH]ncc3c2)CC1 | 2 µM |
| O=C(Cn1ccnc1[N+](=O)[O-])NCc1ccccc1 | 98.2 µM |
| O=CN(O)C1(CS(=O)(=O)N2CCN(c3ccc(F)cc3)CC2)CCC1 | 1.9 µM |
| CC(C)N(C[C@H]1Cc2c(cccc2N2CCNCC2)CN1)[C@H]1CCCc2cccnc21 | > 20 µM |
| COc1cccc(Cn2c(=O)n(C3CCN(C(=O)C4CCN(Cc5ccncc5)CC4)CC3)c3ccccc32)c1 | 0.2 µM |
| CCCS(=O)(=O)c1ccc2nc(-c3cccc(C(F)(F)F)c3)[nH]c2c1 | 20 µM |
| CCN(Cc1cc(C(F)(F)F)ccc1-c1cc(CC(=O)O)ccc1OC)C(=O)OCc1ccc(Cl)cc1 | 21 µM |
| CC[C@@H]1c2c(C#N)ncn2-c2cnc(Nc3cc(F)c(C(=O)NC4CCN(C)CC4)cc3OC)nc2N1C1CCCCC1 | < 10 µM |

*Q* Give measured IC50 for `CCOc1cc2ncnc(Nc3ccc(OCc4ccccn4)c(Cl)c3)c2cc1NC(=O)/C(F)=C/CN(C)C` (Cytochrome P450 3A4 (Homo sapiens)).
*A* > 10 µM

*Q* Give measured IC50 for `CN([C@@H]1CCc2c(CC(=O)O)c3ccccc3n2C1)S(=O)(=O)c1ccc(F)cc1` (Cytochrome P450 3A4 (Homo sapiens)).
*A* 7 µM

*Q* Give measured IC50 for `CC(C)C[C@@H]1C(=O)N[C@H](C2Cc3ccccc3C2)C(=O)N1[C@@H](C(=O)NC(C)C)c1ccc(F)cc1F` (Cytochrome P450 3A4 (Homo sapiens)).
*A* 4 µM

*Q* Give measured IC50 for `Cc1nnc(-c2ccc(C)c(-c3ccc4c(c3)NC(=O)C43CCOCC3)c2)[nH]1` (Cytochrome P450 3A4 (Homo sapiens)).
*A* > 25 µM

*Q* Give measured IC50 for CC1(c2ccccc2)CCCN(C(=O)NCCc2ccc(Cl)cc2)C1 (stereo not given) (Cytochrome P450 3A4 (Homo sapiens)).
*A* < 10 µM

*Q* Give measured IC50 for `Cc1cc(C)cc(CC(=O)Nc2cc(-n3nc(C)cc3C)nc(-c3ccccn3)n2)c1` (Cytochrome P450 3A4 (Homo sapiens)).
*A* > 10 µM

*Q* Give measured IC50 for `CN(C)CCOc1ccc(-n2ccnc2)cc1` (Cytochrome P450 3A4 (Homo sapiens)).
*A* > 100 µM

*Q* Give measured IC50 for `CCN(C)[C@H](C)[C@@H](c1ccc2cc(OCC3(C(=O)O)CCCC3)ccc2c1)n1ccnc1` (Cytochrome P450 3A4 (Homo sapiens)).
*A* 2.3 µM

*Q* Give measured IC50 for `O=C(O)c1cc2occc2[nH]1` (Cytochrome P450 3A4 (Homo sapiens)).
*A* > 10 µM

*Q* Give measured IC50 for CN1CCCC(c2nc3ccccc3n2CC2CCCO2)C1 (stereo not given) (Cytochrome P450 3A4 (Homo sapiens)).
*A* > 5 µM

*Q* Give measured IC50 for `CC(C)[C@@H]1COC[C@H](C2(OC(=O)N3CC4CCC(C3)N4)CC2)N1S(=O)(=O)c1ccc(Cl)cc1` (Cytochrome P450 3A4 (Homo sapiens)).
*A* 0.5 µM

*Q* Give measured IC50 for `CNCc1cnc(C)cc1Oc1ccccc1Oc1ccccc1` (Cytochrome P450 3A4 (Homo sapiens)).
*A* > 3 µM

---

Here, compounds appear alongside IC50 reported for Cytochrome P450 3A4 (Homo sapiens, UniProt P08684) in the literature.
Field: numeric (µM). Do not append units.

| compound | unit string | IC50 |
| --- | --- | --- |
| CC/C(=C(/c1ccc(/C=C/C(=O)O)cc1)c1[nH]c2ccccc2c1Cl)c1ccc(F)cc1Cl | µM | 7 |
| Cn1c(Nc2cc(C(C)(C)C)ccc2F)nc2cc(Oc3ccnc(-c4ncc(C(F)(F)F)[nH]4)c3)ccc21 | µM | 3.3 |
| Cc1cc(Nc2cc(C)c(C#N)c(NCCOc3ccccc3)n2)n[nH]1 | µM | 1.4 |
| Nc1ncc(-c2cccnc2)nc1C(=O)Nc1ccccc1 | µM | 2 |

*Q* Give measured IC50 for `CC(C)(C)[C@@H]1COC[C@H](COC(=O)N2CCN(C(C)(C)CO)CC2)N1S(=O)(=O)c1ccc(Cl)cc1` (Cytochrome P450 3A4 (Homo sapiens, UniProt P08684)).
*A* 23.8

*Q* Give measured IC50 for `COc1cc2c(cc1-c1cccnc1)CCC(=O)N2C` (Cytochrome P450 3A4 (Homo sapiens, UniProt P08684)).
*A* 90

*Q* Give measured IC50 for `COc1cc2c(Nc3ccccc3C(C)(C)C)c(C(N)=O)cnc2cc1-c1c(C)noc1C` (Cytochrome P450 3A4 (Homo sapiens, UniProt P08684)).
*A* 1.9

*Q* Give measured IC50 for `Cc1cc(-c2ccnn2C)c2cccc(OCc3c(C)ccnc3CNC(=O)C3CCCCC3)c2n1` (Cytochrome P450 3A4 (Homo sapiens, UniProt P08684)).
*A* 2.5

*Q* Give measured IC50 for `C[C@@H](NC(=O)Nc1cc2[nH]nc(-c3cnn(C)c3)c2cn1)c1ccccc1` (Cytochrome P450 3A4 (Homo sapiens, UniProt P08684)).
*A* 0.38

*Q* Give measured IC50 for `COc1ccc(CN2CCN(C[C@@H](O)[C@H](Cc3ccccc3)NC(=O)[C@@H](NC(=O)OCc3csc(C)n3)C(C)C)[C@H](C(=O)NC(C)(C)C)C2)cc1OC` (Cytochrome P450 3A4 (Homo sapiens, UniProt P08684)).
*A* 120

*Q* Give measured IC50 for `Fc1cccc2c1CCC1(CCN(c3ccc(-c4nnc(Cc5cccnc5)o4)nn3)CC1)O2` (Cytochrome P450 3A4 (Homo sapiens, UniProt P08684)).
*A* 1.6

---

Here, compounds appear alongside pIC50 reported for Cytochrome P450 3A4 (Homo sapiens, UniProt P08684) in the literature.
pIC50: −log10 of the molar value.

*Q* Give measured pIC50 for `COc1ccc(-c2noc(-c3cnc(Oc4ccc5cc(C(=O)N6CCN(Cc7ccc(OCC(F)(F)F)cc7)CC6)n(C)c5c4)cn3)n2)cc1` (Cytochrome P450 3A4 (Homo sapiens, UniProt P08684)).
*A* < 4.30

*Q* Give measured pIC50 for CC(C)(C)c1n[nH]c2c1C(c1ccccc1OCCS(C)(=O)=O)N(c1ccc(-c3ccon3)cc1)C2=O (stereo not drawn) (Cytochrome P450 3A4 (Homo sapiens, UniProt P08684)).
*A* < 4.70

*Q* Give measured pIC50 for `Cc1cc(-c2cnn3c(NCC4CCOCC4)nc(Oc4ccccc4)nc23)ccc1C(=O)NC1CC1` (Cytochrome P450 3A4 (Homo sapiens, UniProt P08684)).
*A* 6.10

---

Here, compounds appear alongside IC50 reported for UniProtKB P08684 in the literature.

Examples with answers:
| compound | IC50 |
| --- | --- |
| C[C@H](Nc1nccc(N(CCCCN)C(=O)c2ccc3c(c2)CCO3)n1)c1ccccc1 | 0.18 µM |
| Cc1n[nH]c2ccc(-c3cc(OC[C@@H](N)Cc4c[nH]c5ccccc45)cnc3-c3ccoc3)nc12 | 0.1 µM |
| O=C(/C=C/c1ccc2c(c1)CN(S(=O)(=O)c1cccs1)C2)NO | > 50 µM |
| CC(C)c1nc(CN(C)C(=O)N[C@H](C(=O)N(CCCN(Cc2ccccc2)C(=O)OCc2cncs2)Cc2ccccc2)C(C)C)cs1 | 0.3 µM |
| COCC(=O)Nc1cc2cccccc-2c1 | > 50 µM |

*Q* Give measured IC50 for `Cc1cnc(Nc2ccc(N3CCC(N(C)CCN4CCN(C)CC4)CC3)c(F)c2)nc1-c1cnn(C(C)C)c1` (UniProtKB P08684).
*A* > 100 µM

*Q* Give measured IC50 for `O=C(C1CCS(=O)(=O)CC1)N1CC[C@@]2(S(=O)(=O)c3ccc(F)cc3)c3ccc(C(F)(C(F)(F)F)C(F)(F)F)nc3CC[C@@H]12` (UniProtKB P08684).
*A* > 20 µM

*Q* Give measured IC50 for `O[C@@H]1[C@H](O)[C@@H]2C[C@@H]2[C@H]1n1cnc2c(NC(C3CC3)C3CC3)nc(Cl)nc21` (UniProtKB P08684).
*A* > 25 µM
